Reference source: paper PMC12284294

Target: T1, Formyl peptide receptor 3 (human, UniProt P25089 1-353)
T1 chain: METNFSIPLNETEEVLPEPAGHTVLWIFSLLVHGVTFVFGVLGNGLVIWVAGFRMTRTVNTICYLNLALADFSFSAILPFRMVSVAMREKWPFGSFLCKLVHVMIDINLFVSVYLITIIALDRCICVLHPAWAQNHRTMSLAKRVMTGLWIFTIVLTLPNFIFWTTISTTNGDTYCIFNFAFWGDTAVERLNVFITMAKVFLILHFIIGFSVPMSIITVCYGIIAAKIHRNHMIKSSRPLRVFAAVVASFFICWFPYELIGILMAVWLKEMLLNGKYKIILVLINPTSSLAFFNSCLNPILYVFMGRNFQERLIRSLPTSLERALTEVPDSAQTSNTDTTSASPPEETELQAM
Ends that are not written are not given here.
Quantity: Kd (nM)

> print(dat)
                                     binder  quantity  test.result
1  EQYIKWPWYVWL (also: fluorescently labeled) [fluorescently labeled SARS-CoV MPR peptide CV3]        Kd          756
2  ETYIKWPWWVWL (also: fluorescently labeled) [fluorescently labeled HCoV-229E MPR peptide CV1]        Kd          366
